Tested on: IL-6
Experiment: Inhibition of IL-6 in LPS-stimulated human monocyte cells (THP-1), HTRF
Assay type: cell-based
Conditions: Homo sapiens; THP-1 cells, LPS 500 ng/mL, IL-6 by HTRF
Let's look at some molecules and their measured EC50.
// note: answer is a bare numeric in nM

| smiles | EC50, nM |
| --- | --- |
| c1ncc(-c2ccc3[nH]nc(-c4nc5c(N6CCCCC6)cncc5[nH]4)c3c2)cc1CN1CCCC1 | 311 |
| c1cncc(-c2ccc3[nH]nc(-c4nc5c(N6CCOCC6)cncc5[nH]4)c3c2)c1 | 232 |
| Cc1ccncc1-c1ccc2[nH]nc(-c3nc4c(-c5ccc(F)cc5)cncc4[nH]3)c2c1 | 40 |
| O=C(Cc1ccccc1)Nc1cncc(-c2ccc3[nH]nc(-c4nc5c(-c6ccoc6)cncc5[nH]4)c3c2)c1 | 697 |
| O=C(Nc1cncc(-c2ccc3[nH]nc(-c4nc5ccncc5[nH]4)c3c2)c1)C1CCCCC1 | 827 |

Tell me measured EC50 for `c1cncc(-c2ccc3[nH]nc(-c4nc5c(-c6ccoc6)cncc5[nH]4)c3c2)c1` please.
207

Tell me measured EC50 for `Nc1cncc(-c2ccc3[nH]nc(-c4nc5c(-c6ccsc6)cncc5[nH]4)c3c2)c1` please.
11

* * *

System: IL-6
Assay: Inhibition of IL-6 in LPS-stimulated human monocyte cells (THP-1), HTRF
Type: cell-based
Settings: Homo sapiens; THP-1 cells, LPS 500 ng/mL, IL-6 by HTRF
reported_endpoint: EC50 (nM)
// note: answer is a bare numeric in nM

| compound | system | EC50, nM |
| --- | --- | --- |
| FC1(F)CCN(Cc2cncc(-c3ccc4[nH]nc(-c5nc6c(N7CCCCC7)cncc6[nH]5)c4c3)c2)C1 [Compound 342] | IL-6 | 109 |
| CCCCC(=O)Nc1cncc(-c2ccc3[nH]nc(-c4nc5c(-c6ccoc6)cncc5[nH]4)c3c2)c1 [Compound 329] | IL-6 | 58 |
| CC(C)(C)CC(=O)Nc1cncc(-c2ccc3[nH]nc(-c4nc5c(-c6ccsc6)cncc5[nH]4)c3c2)c1 [Compound 304] | IL-6 | 40 |
| CC(C)CC(=O)Nc1cncc(-c2ccc3[nH]nc(-c4nc5c(-c6cccc(F)c6)cncc5[nH]4)c3c2)c1 [Compound 10] | IL-6 | 13 |
| FC1(F)CCN(Cc2cncc(-c3ccc4[nH]nc(-c5nc6c(-c7cccnc7)cncc6[nH]5)c4c3)c2)C1 [Compound 339] | IL-6 | 97 |
| O=C(Nc1cncc(-c2ccc3[nH]nc(-c4nc5c(-c6ccncc6)cncc5[nH]4)c3c2)c1)C1CCCC1 [Compound 170] | IL-6 | 4690 |
| CN(C)Cc1cncc(-c2ccc3[nH]nc(-c4nc5c(-c6cccc(F)c6)cncc5[nH]4)c3c2)c1 [Compound 89] | IL-6 | 44 |
| CN1CCN(c2cncc3[nH]c(-c4n[nH]c5ccc(-c6cncc(N7CCOCC7)c6)cc45)nc23)CC1 [Compound 5] | IL-6 | 349 |
| CC(C)(C)C(=O)Nc1cncc(-c2ccc3[nH]nc(-c4nc5c(N6CCCCC6)cncc5[nH]4)c3c2)c1 [Compound 205] | IL-6 | 16 |
| CN(C)c1cncc(-c2ccc3[nH]nc(-c4nc5c(-c6ccsc6)cncc5[nH]4)c3c2)c1 [Compound 295] | IL-6 | 47 |

Find the measured EC50 of c1cc(-c2cncc3[nH]c(-c4n[nH]c5ccc(-c6cncc(CN7CCCCC7)c6)cc45)nc23)ccn1 [Compound 164] with IL-6 as test system.
433

Find the measured EC50 of c1cncc(-c2ccc3[nH]nc(-c4nc5c(-c6cccnc6)cncc5[nH]4)c3c2)c1 [Compound 136] with IL-6 as test system.
125

* * *

Let's look at some compounds and their measured pEC50.
System: IL-6
Assay: Inhibition of IL-6 in LPS-stimulated human monocyte cells (THP-1), HTRF
Type: cell-based
Details: Homo sapiens; THP-1 cells, LPS 500 ng/mL, IL-6 by HTRF
# reply with the number alone; pEC50 is -log10 of concentration in mol/L

Study these solved cases before continuing.
| compound | system | pEC50 |
| --- | --- | --- |
| Fc1cccc(-c2cncc3[nH]c(-c4n[nH]c5ccc(-c6cncc(CN7CCC(F)(F)C7)c6)cc45)nc23)c1 [Compound 336] | IL-6 | 7.15 |
| CC(C)C(=O)Nc1cncc(-c2ccc3[nH]nc(-c4nc5c(-c6ccccc6F)cncc5[nH]4)c3c2)c1 [Compound 31] | IL-6 | 7.85 |

Next item in the queue.
Tell me measured pEC50 for CC(C)CC(=O)Nc1cncc(-c2ccc3[nH]nc(-c4nc5c(-c6ccccc6F)cncc5[nH]4)c3c2)c1 [Compound 11] please.
7.48

* * *

System: IL-6
Assay: Inhibition of IL-6 in LPS-stimulated human monocyte cells (THP-1), HTRF
Format: cell-based
Conditions: Homo sapiens; THP-1 cells, LPS 500 ng/mL, IL-6 by HTRF
reported_endpoint: EC50
Please format your answer as a value with the unit trailing.

| compound | system | result |
| --- | --- | --- |
| CC(C)CC(=O)Nc1cncc(-c2ccc3[nH]nc(-c4nc5c(-c6cccs6)cncc5[nH]4)c3c2)c1 [Compound 397] | IL-6 | 14 nM |
| CC(C)Nc1cncc(-c2ccc3[nH]nc(-c4nc5c(-c6ccccc6F)cncc5[nH]4)c3c2)c1 [Compound 124] | IL-6 | 47 nM |
| c1ccc(-c2cncc3[nH]c(-c4n[nH]c5ccc(-c6cccnc6)cc45)nc23)nc1 [Compound 177] | IL-6 | 30 nM |

Find the measured EC50 of Cc1ccncc1-c1ccc2[nH]nc(-c3nc4c(-c5ccncc5)cncc4[nH]3)c2c1 [Compound 154] with IL-6 as test system.
188 nM

Find the measured EC50 of CN(C)Cc1cncc(-c2ccc3[nH]nc(-c4nc5c(N6CCN(C)CC6)cncc5[nH]4)c3c2)c1 [Compound 3] with IL-6 as test system.
273 nM

Find the measured EC50 of O=C(Nc1cncc(-c2ccc3[nH]nc(-c4nc5c(-c6cccc(F)c6)cncc5[nH]4)c3c2)c1)C1CCCCC1 [Compound 94] with IL-6 as test system.
19 nM

Find the measured EC50 of CC(C)(C)CC(=O)Nc1cncc(-c2ccc3[nH]nc(-c4nc5c(-c6cccc(F)c6)cncc5[nH]4)c3c2)c1 [Compound 90] with IL-6 as test system.
42 nM

* * *

Let's look at some compounds and their measured pEC50.
System: IL-6
Experiment: Inhibition of IL-6 in LPS-stimulated human monocyte cells (THP-1), HTRF
Type: cell-based
Details: Homo sapiens; THP-1 cells, LPS 500 ng/mL, IL-6 by HTRF
# reply with the number alone; pEC50 is -log10 of concentration in mol/L

Study these solved cases before continuing.
| smiles | system | pEC50 |
| --- | --- | --- |
| CC(C)CC(=O)Nc1cncc(-c2ccc3[nH]nc(-c4nc5c(-c6cc(F)cc(NCCN(C)C)c6)cncc5[nH]4)c3c2)c1 | IL-6 | 7.47 |
| Fc1ccc(-c2cncc3[nH]c(-c4n[nH]c5ccc(-c6cncc(CN7CCCC7)c6)cc45)nc23)cc1 | IL-6 | 7.12 |
| O=C(Nc1cncc(-c2ccc3[nH]nc(-c4nc5c(-c6ccoc6)cncc5[nH]4)c3c2)c1)C1CCCCC1 | IL-6 | 6.99 |
| O=C(Nc1cncc(-c2ccc3[nH]nc(-c4nc5c(-c6ccc(F)cc6)cncc5[nH]4)c3c2)c1)C1CCC1 | IL-6 | 7.30 |
| CC(C)(C)CC(=O)Nc1cncc(-c2ccc3[nH]nc(-c4nc5ccncc5[nH]4)c3c2)c1 | IL-6 | 6.14 |
| CN1CCN(c2cncc(-c3ccc4[nH]nc(-c5nc6ccncc6[nH]5)c4c3)c2)CC1 | IL-6 | 5.61 |

Tell me measured pEC50 for `CN(C)Cc1cncc(-c2ccc3[nH]nc(-c4nc5c(-c6ccsc6)cncc5[nH]4)c3c2)c1` please.
6.90

* * *

Let's look at some compounds and their measured pEC50.
System: IL-6
Experiment: Inhibition of IL-6 in LPS-stimulated human monocyte cells (THP-1), HTRF
Format: cell-based
Conditions: Homo sapiens; THP-1 cells, LPS 500 ng/mL, IL-6 by HTRF
# reply with the number alone; pEC50 is -log10 of concentration in mol/L

Study these solved cases before continuing.
| smiles | pEC50 |
| --- | --- |
| CC(C)C(=O)Nc1cncc(-c2ccc3[nH]nc(-c4nc5c(N6CCN(C)CC6)cncc5[nH]4)c3c2)c1 | 6.54 |
| CN1CCN(c2cncc3[nH]c(-c4n[nH]c5ccc(-c6cncc(NC(=O)Cc7ccccc7)c6)cc45)nc23)CC1 | 6.12 |
| CC(C)CC(=O)Nc1cncc(-c2ccc3[nH]nc(-c4nc5c(-c6cc(F)cc(CNS(C)(=O)=O)c6)cncc5[nH]4)c3c2)c1 | 7.47 |
| CN1CCN(c2cncc3[nH]c(-c4n[nH]c5ccc(-c6cncc(NC(=O)C7CCCCC7)c6)cc45)nc23)CC1 | 6.65 |

Tell me measured pEC50 for `CN(C)Cc1cncc(-c2ccc3[nH]nc(-c4nc5c(-c6cncc(F)c6)cncc5[nH]4)c3c2)c1` please.
6.87

Tell me measured pEC50 for `FC1(F)CCN(Cc2cncc(-c3ccc4[nH]nc(-c5nc6c(-c7ccsc7)cncc6[nH]5)c4c3)c2)C1` please.
7.43

Tell me measured pEC50 for `c1cc(-c2cncc3[nH]c(-c4n[nH]c5ccc(-c6cncc(CNCC7CCCC7)c6)cc45)nc23)cs1` please.
6.67

Tell me measured pEC50 for `CN1CCN(c2cncc3[nH]c(-c4n[nH]c5ccc(-c6cncc(NC(=O)CC(C)(C)C)c6)cc45)nc23)CC1` please.
7.01

Tell me measured pEC50 for `O=C(Nc1cncc(-c2ccc3[nH]nc(-c4nc5c(-c6cccc(F)c6)cncc5[nH]4)c3c2)c1)C1CC1` please.
7.72

Tell me measured pEC50 for `CN1CCN(c2cncc3[nH]c(-c4n[nH]c5ccc(-c6cncc(NC(=O)C7CC7)c6)cc45)nc23)CC1` please.
6.53

Tell me measured pEC50 for `Cc1ccncc1-c1ccc2[nH]nc(-c3nc4c(N5CCCCC5)cncc4[nH]3)c2c1` please.
5.91

Tell me measured pEC50 for `O=C(Cc1ccccc1)Nc1cncc(-c2ccc3[nH]nc(-c4nc5c(-c6cccc(F)c6)cncc5[nH]4)c3c2)c1` please.
7.38

Tell me measured pEC50 for `CC(C)(C)C(=O)Nc1cncc(-c2ccc3[nH]nc(-c4nc5c(-c6ccc(F)cc6)cncc5[nH]4)c3c2)c1` please.
7.28

Tell me measured pEC50 for `CCCC(=O)Nc1cncc(-c2ccc3[nH]nc(-c4nc5c(N6CCCCC6)cncc5[nH]4)c3c2)c1` please.
7.23

Tell me measured pEC50 for `CCC(=O)Nc1cncc(-c2ccc3[nH]nc(-c4nc5c(-c6ccccn6)cncc5[nH]4)c3c2)c1` please.
7.80

Tell me measured pEC50 for `c1cc(-c2cncc3[nH]c(-c4n[nH]c5ccc(-c6cncc(CN7CCCCC7)c6)cc45)nc23)cs1` please.
5.99

Tell me measured pEC50 for `O=C(Nc1cncc(-c2ccc3[nH]nc(-c4nc5c(-c6ccc(F)cc6)cncc5[nH]4)c3c2)c1)c1ccccc1` please.
5.14

Tell me measured pEC50 for `CC(C)CC(=O)Nc1cncc(-c2ccc3[nH]nc(-c4nc5c(N6CCN(C)CC6)cncc5[nH]4)c3c2)c1` please.
6.35

Tell me measured pEC50 for `CCC(=O)Nc1cncc(-c2ccc3[nH]nc(-c4nc5c(-c6ccsc6)cncc5[nH]4)c3c2)c1` please.
7.80

Tell me measured pEC50 for `O=C(Nc1cncc(-c2ccc3[nH]nc(-c4nc5c(-c6ccoc6)cncc5[nH]4)c3c2)c1)C1CC1` please.
5.23
